Every entry's value here was drawn from paper PMC11480844.

B1: H2-Kb / E4 (parent)
chain 1: AQSVTQPDARVTVSEGASLQLRCKYSYSGTPYLFWYVQYPRQGLQLLLKYYSGDPVVQGVNGFEAEFIKSNSSFHLRKASVHWSDSAVYFCAVSAGQGGSAKLIFGEGTKLTVSS
chain 2: GGIITQTPKFLIGQEGQKLTLKCQQNFNHDTMYWYRQDSGKGLRLIYYSITENDLQKGDLSEGYDASREKKSSFSLTVTSAQKNEMAVFLCASSIWGDSYEQYFGPGTRLTVL
chain 3: not shown
chain 4: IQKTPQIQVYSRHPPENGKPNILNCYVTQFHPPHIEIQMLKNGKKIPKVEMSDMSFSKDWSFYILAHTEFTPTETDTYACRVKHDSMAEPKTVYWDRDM
chain 5: SIINFEKL

variants of: B1; experiment: % of reporter cells activated (NFAT-GFP), raw; details: with E4; note: test concentration or dose not given here
readout_label: ratio to parent

mutation_notation | reported_result
chain 5 E6V | 1.05
chain 5 I2N | 1.27
chain 5 F5G | 0.46
chain 5 L8Q | 0.524
chain 5 E6D | 1.05
chain 5 I2W | 1.11
chain 5 I3P | 0.206
chain 5 N4C | 0.921
chain 5 L8W | 0.762
chain 5 S1M | 0.857
chain 5 L8M | 0.381
chain 5 K7Q | 0.521
chain 5 K7W | 0.413
chain 5 I2P | 0.937
chain 5 S1E | 0.698
chain 5 F5W | 0.54
chain 5 S1T | 0.905
chain 5 E6Y | 1.08
chain 5 K7R | 0.633
chain 5 L8C | 0.46
chain 5 L8E | 0.619
chain 5 N4S | 0.714
chain 5 E6A | 0.635
chain 5 N4H | 1.05
chain 5 K7S | 0.46
chain 5 I3H | 0.921
chain 5 E6F | 0.698
chain 5 L8T | 0.73
chain 5 K7H | 0.905
chain 5 E6L | 0.381
chain 5 K7Y | 0.425
chain 5 I3W | 0.762
chain 5 E6K | 0.873
chain 5 E6T | 0.841
chain 5 S1Y | 0.873
chain 5 S1I | 0.825
chain 5 E6N | 0.619
chain 5 K7L | 0.508
chain 5 N4Y | 0.762
chain 5 I2Y | 0.825
chain 5 S1A | 0.857
chain 5 N4I | 0.873
chain 5 S1F | 0.857
chain 5 I3R | 0.603
chain 5 N4P | 0.651
chain 5 F5D | 1.32
chain 5 I3D | 0.73
chain 5 K7I | 1.29
chain 5 F5T | 0.841
chain 5 K7A | 0.413
chain 5 F5K | 0.825
chain 5 I3G | 0.825
chain 5 K7M | 0.492
chain 5 F5M | 0.629
chain 5 S1R | 0.565
chain 5 F5L | 0.698
chain 5 N4T | 0.635
chain 5 E6S | 0.952
chain 5 N4G | 0.698
chain 5 L8V | 0.603
chain 5 N4M | 0.968
chain 5 L8F | 0.427
chain 5 K7D | 0.444
chain 5 E6P | 0.46
chain 5 L8K | 0.635
chain 5 N4K | 1.1
chain 5 N4F | 0.635
chain 5 E6G | 0.746
chain 5 I2A | 1.43
chain 5 S1P | 0.857
chain 5 F5H | 0.825
chain 5 I3V | 0.698
chain 5 I3F | 0.762
chain 5 F5N | 0.635
chain 5 S1W | 0.841
chain 5 I2S | 0.651
chain 5 I3T | 0.571
chain 5 F5S | 0.556
chain 5 I2T | 0.968
chain 5 S1C | 0.952
chain 5 I3C | 0.762
chain 5 S1G | 0.937
